- Measured on: factor D (Homo sapiens, UniProt P00746)
- Construct: made in house; host or cells: E. coli
- Sequence (P00746 26-253): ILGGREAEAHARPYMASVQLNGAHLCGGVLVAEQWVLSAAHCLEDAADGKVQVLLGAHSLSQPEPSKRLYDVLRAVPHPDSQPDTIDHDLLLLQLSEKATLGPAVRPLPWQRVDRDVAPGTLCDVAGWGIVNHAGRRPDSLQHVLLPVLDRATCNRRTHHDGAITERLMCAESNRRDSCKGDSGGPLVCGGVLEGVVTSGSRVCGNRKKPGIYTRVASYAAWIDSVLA
- Test description: factor D inhibition assay of Biological Example 2
- Type: biochemical
Consider the following compounds; for each one, report its IC50.
Your answer should be a plain number; it is taken to be in nM.

Please respond with reported IC50 (system factor D (Homo sapiens, UniProt P00746)) for COCCc1cc(COc2ccccc2CC(=O)O)cc(-c2cccc([C@@H](C)N)c2)c1 .
13

Consider the compound CNc1sc(-c2cc(F)cc(CN)c2)nc1C(=O)Nc1ccccc1CC(=O)O tested on factor D (Homo sapiens, UniProt P00746); state its IC50.
16

# return IC50 of C[C@@H](N)c1cccc(-c2cc(COc3ccccc3CC(=O)O)cc(N3CCC3)c2)c1F (system: factor D (Homo sapiens, UniProt P00746))
10
